# Tested on: Vemurafenib-resistant A375 cell line
# Assay explanation: Cell viability assay, Vemurafenib-resistant A375 cells
# Type: cell-based, human
# Conditions: Homo sapiens, vemurafenib-resistant A-375; Vemurafenib-resistant A375 cells
Metric name: pIC50
Lab note — pIC50 values are minus log10 of concentrations in M.

[Q] What pIC50 value was documented for this compound, `CCCS(=O)(=O)Nc1ccc(F)c(C(=O)c2c[nH]c3ncc(-c4ccc(Cl)cc4)cc23)c1F` ?
[A] 5.84
